The reported measurements were obtained from patent US12187772.

Biological target: T1, IL10 receptor (IL10 receptor subunit alpha IL10Ra and beta subunit IL10Rb) on Ramos/STAT3-Luc and … (UniProt Q13651 22-578; Q08334 20-325, limits assumed)
T1 sequence (looked up) 1: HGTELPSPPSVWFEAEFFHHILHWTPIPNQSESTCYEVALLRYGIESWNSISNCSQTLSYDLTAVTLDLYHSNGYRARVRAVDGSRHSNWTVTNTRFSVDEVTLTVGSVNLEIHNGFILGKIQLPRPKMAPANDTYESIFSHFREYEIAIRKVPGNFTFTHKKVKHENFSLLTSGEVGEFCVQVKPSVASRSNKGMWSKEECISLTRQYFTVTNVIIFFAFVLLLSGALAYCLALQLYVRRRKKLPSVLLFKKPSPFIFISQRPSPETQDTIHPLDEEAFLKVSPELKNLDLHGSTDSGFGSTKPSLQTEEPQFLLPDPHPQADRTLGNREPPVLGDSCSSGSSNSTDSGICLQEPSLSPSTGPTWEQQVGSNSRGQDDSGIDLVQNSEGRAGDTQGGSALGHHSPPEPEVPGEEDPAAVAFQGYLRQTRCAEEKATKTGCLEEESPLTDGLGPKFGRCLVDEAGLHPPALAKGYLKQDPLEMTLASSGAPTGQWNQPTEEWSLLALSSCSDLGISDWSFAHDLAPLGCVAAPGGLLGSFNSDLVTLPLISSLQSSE
T1 sequence (looked up) 2: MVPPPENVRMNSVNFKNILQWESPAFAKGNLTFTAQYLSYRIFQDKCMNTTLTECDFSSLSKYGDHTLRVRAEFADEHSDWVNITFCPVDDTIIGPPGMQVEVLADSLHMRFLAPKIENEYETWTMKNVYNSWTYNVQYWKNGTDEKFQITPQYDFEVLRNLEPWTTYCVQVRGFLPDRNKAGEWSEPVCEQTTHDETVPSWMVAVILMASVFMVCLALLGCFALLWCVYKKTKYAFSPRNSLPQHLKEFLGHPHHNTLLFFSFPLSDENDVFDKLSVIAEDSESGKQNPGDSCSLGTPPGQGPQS
Test: cell-based or functional assay
MEASURED QUANTITY: EC50 of luciferase activity, TF-1/Stat3-Luc reporter cells (nM)
Give just the numeric value; nM need not be written.

BINDER | REPORTED RESULT
IL10M4 (Fc-2XG4S-hIL10; Fc is IgG4s) (Fc fusion) ESKYGPPCPPCPAPPVAGPSVFLFPPKPKDTLMISRTPEVTCVVVDVSQEDPEVQFNWYVDGVEVHNAKTKPREEQFNSTYRVVSVLTVLHQDWLNGKEYKCKVSNKGLPSSIEKTISKAKGQPREPQVYTLPPSQEEMTKNQVSLTCLVKGFYPSDIAVEWESNGQPENNYKTTPPVLDSDGSFFLYSRLTVDKSRWQEGNVFSCSVMHEALHNHYTQKSLSLSLGKGGGGSGGGGSSPGQGTQSENSCTHFPGNLPNMLRDLRDAFSRVKTFFQMKDQLDNLLLKESLLEDFKGYLGCQALSEMIQFYLEEVMPQAENQDPDIKAHVNSLGENLKTLRLRLRRCHRFLPCENKSKAVEQVKNAFNKLQEKGIYKAMSEFDIFINYIEAYMTMKIRN | 0.138

// moving on: another record for EC50 of luciferase activity, TF-1/Stat3-Luc reporter cells
Q: What EC50 of luciferase activity, TF-1/Stat3-Luc reporter cells value was documented for this binder, IL10M6 (hIL10-2XG4S-Fc; Fc is IgG4s) (Fc fusion) SPGQGTQSENSCTHFPGNLPNMLRDLRDAFSRVKTFFQMKDQLDNLLLKESLLEDFKGYLGCQALSEMIQFYLEEVMPQAENQDPDIKAHVNSLGENLKTLRLRLRRCHRFLPCENKSKAVEQVKNAFNKLQEKGIYKAMSEFDIFINYIEAYMTMKIRNGGGGSGGGGSESKYGPPCPPCPAPPVAGPSVFLFPPKPKDTLMISRTPEVTCVVVDVSQEDPEVQFNWYVDGVEVHNAKTKPREEQFNSTYRVVSVLTVLHQDWLNGKEYKCKVSNKGLPSSIEKTISKAKGQPREPQVYTLPPSQEEMTKNQVSLTCLVKGFYPSDIAVEWESNGQPENNYKTTPPVLDSDGSFFLYSRLTVDKSRWQEGNVFSCSVMHEALHNHYTQKSLSLSLGK ?
A: 0.361
